testSystem: TRKC (Homo sapiens)
Construct: purchased Carna 08-196
testDetails: Determination of inhibitory activity against TRKC kinase (ADP-Glo Kinase Assay)
Assay type: biochemical
studyConditions: ATP 5 μM, Poly (4:1 Glu, Tyr) Peptide 0.03 mg/ml
measuredAttribute: IC50 (nM)

compound	measuredAttribute	observedMeasurement
CC(Oc1ccc2[nH]nc(-c3nc4c([nH]3)CN(C3CC5(C3)CN(C)C5)C4)c2c1)c1cc(F)cc(F)c1 (centres unmarked)	IC50	2.3
C[C@H](Oc1ccc2[nH]nc(-c3nc4c([nH]3)CN(CC3CCN(C)CC3)C4)c2c1)c1cc(F)cc(F)c1	IC50	4.6
CC(=O)N1CCC(CN2Cc3nc(-c4n[nH]c5ccc(OC(C)c6cc(F)cc(F)c6)cc45)[nH]c3C2)CC1 (centres unmarked)	IC50	4.1
CC(Oc1ccc2[nH]nc(-c3nc4c([nH]3)CN(CC3CCCNC3)C4)c2c1)c1cc(F)cc(F)c1 (centres unmarked)	IC50	2.2
CC(Oc1ccc2[nH]nc(-c3nc4c([nH]3)CN(C(=O)OC3CCCN(C)C3)C4)c2c1)c1cc(F)cc(F)c1 (centres unmarked)	IC50	1.2
CC(Oc1ccc2[nH]nc(-c3nc4c([nH]3)CN(C3CCCC(N(C)C)C3)C4)c2c1)c1cc(F)cc(F)c1 (centres unmarked)	IC50	1.7
CCN1CCC(N2Cc3nc(-c4n[nH]c5ccc(OC(C)c6cc(F)cc(F)c6)cc45)[nH]c3C2)CC1 (centres unmarked)	IC50	3.6
CC(Oc1ccc2[nH]nc(-c3nc4c([nH]3)CN(C(=O)C3CCN(C)CC3)C4)c2c1)c1cc(F)cc(F)c1 (centres unmarked)	IC50	1.3
CC(Oc1ccc2[nH]nc(-c3nc4c([nH]3)CN(CC3CCCCN3)C4)c2c1)c1cc(F)cc(F)c1 (centres unmarked)	IC50	1.6
CC(Oc1ccc2[nH]nc(-c3nc4c([nH]3)CN(CC3(C)CCN(C(C)C)CC3)C4)c2c1)c1cc(F)cc(F)c1 (centres unmarked)	IC50	1.4
CC(Oc1ccc2[nH]nc(-c3nc4c([nH]3)CN(C3CCN(C)CC3)C4)c2c1)c1cc(F)cc(F)c1 (centres unmarked)	IC50	3.1
CCN1CCCC(N2Cc3nc(-c4n[nH]c5ccc(OC(C)c6cc(F)cc(F)c6)cc45)[nH]c3C2)C1 (centres unmarked)	IC50	2.9
CC(Oc1ccc2[nH]nc(-c3nc4c([nH]3)CN(CCN(C)C)C4)c2c1)c1cc(F)cc(F)c1 (centres unmarked)	IC50	1.5
CC(Oc1ccc2[nH]nc(-c3nc4c([nH]3)CN(C3CCN(C)CC3)CC4)c2c1)c1cc(F)cc(F)c1 (centres unmarked)	IC50	1.6

---

testSystem: TRKC (Homo sapiens, UniProt Q16288)
Construct: purchased Carna 08-196
Sequence (Q16288 32-839): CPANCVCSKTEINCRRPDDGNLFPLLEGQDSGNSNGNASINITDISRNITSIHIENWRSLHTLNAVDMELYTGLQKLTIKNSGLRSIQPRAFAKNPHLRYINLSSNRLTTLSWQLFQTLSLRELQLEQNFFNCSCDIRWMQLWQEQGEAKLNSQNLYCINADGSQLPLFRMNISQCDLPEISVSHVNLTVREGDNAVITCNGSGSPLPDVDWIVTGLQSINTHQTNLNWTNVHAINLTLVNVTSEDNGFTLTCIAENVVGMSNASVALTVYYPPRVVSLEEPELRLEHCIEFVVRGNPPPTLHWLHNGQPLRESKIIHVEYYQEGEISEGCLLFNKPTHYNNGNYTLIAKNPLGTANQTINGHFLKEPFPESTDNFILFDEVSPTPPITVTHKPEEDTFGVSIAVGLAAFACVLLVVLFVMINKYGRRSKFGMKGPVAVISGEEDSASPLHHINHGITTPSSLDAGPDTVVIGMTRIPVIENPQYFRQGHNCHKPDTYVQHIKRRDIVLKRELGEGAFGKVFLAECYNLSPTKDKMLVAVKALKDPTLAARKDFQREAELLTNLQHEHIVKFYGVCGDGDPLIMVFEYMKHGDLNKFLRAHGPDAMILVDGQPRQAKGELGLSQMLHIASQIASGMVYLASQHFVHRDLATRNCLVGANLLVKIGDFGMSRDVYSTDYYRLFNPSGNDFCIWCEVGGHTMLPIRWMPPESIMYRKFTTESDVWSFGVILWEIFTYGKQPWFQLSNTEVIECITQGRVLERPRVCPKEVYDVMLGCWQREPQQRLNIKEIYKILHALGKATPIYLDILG
testDetails: Determination of inhibitory activity against TRKC kinase (ADP-Glo Kinase Assay)
Type: biochemical
studyConditions: ATP 5 μM, Poly (4:1 Glu, Tyr) Peptide 0.03 mg/ml
measuredAttribute: IC50 (nM)

compound	endpointUnit	observedMeasurement
CC(Oc1ccc2[nH]nc(-c3nc4c([nH]3)CN(C(=O)N3CCN(C)CC3)C4)c2c1)c1cc(F)cc(F)c1 (stereo not shown) [Example 29]	nM	1.8
Fc1cc(F)cc(CNc2ccc3[nH]nc(-c4nc5c([nH]4)CN(CC4CCNCC4)C5)c3c2)c1 [Example 2]	nM	3.3
CC(Oc1ccc2[nH]nc(-c3nc4c([nH]3)CN(CC3CCN(C5CCC5)CC3)C4)c2c1)c1cc(F)cc(F)c1 (stereo not shown) [Example 27]	nM	3.5
CCC(Oc1ccc2[nH]nc(-c3nc4c([nH]3)CN(CC3CCN(C)CC3)C4)c2c1)c1cc(F)cc(F)c1 (stereo not shown) [Example 48]	nM	6.1
